System Name: T1, pm4 (sulfated tyrosine(s) among Y15, Y16, Y17; which ones is not told (the underlining of Table 1 is lost in the text))
T1 construct: also called sulfated CCR8 N-terminal peptide pm4
T1 sequence (peptide, as listed by the source): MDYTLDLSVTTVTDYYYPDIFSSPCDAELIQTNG
Assay Overview: ELISA on coated peptide [cont.]
Property Name: binding result

anti-CCR8 mAb 1-24 (antibody, human IgG1, kappa, V domains shown, Humanized mAb, human IgG1 / kappa) VH: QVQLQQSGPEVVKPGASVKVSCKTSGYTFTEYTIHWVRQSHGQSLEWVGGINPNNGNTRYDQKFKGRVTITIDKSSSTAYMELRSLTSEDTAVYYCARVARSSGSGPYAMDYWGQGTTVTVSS VL: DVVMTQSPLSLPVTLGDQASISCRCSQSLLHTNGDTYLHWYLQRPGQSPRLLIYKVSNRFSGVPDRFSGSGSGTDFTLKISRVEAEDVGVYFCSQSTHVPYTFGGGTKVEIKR : binds
anti-CCR8 mAb 1-3 (antibody, V domains shown, Murine hybridoma mAb) VH: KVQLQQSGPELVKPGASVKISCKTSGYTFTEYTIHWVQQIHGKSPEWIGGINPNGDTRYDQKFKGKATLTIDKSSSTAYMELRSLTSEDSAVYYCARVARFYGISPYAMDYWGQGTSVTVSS VL: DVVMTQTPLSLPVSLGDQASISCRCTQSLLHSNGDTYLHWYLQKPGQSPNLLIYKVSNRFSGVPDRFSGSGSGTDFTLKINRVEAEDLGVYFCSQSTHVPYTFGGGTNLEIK : binds
anti-CCR8 mAb 1-6 (antibody, V domains shown, Murine hybridoma mAb) VH: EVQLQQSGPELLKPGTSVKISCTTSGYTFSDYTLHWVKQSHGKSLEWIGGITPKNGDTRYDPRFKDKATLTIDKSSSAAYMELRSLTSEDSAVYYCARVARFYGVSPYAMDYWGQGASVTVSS VL: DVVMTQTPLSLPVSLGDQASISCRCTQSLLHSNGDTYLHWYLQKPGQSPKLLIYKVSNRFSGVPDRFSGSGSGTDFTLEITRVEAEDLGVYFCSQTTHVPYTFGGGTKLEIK : binds
